Reported Ki against Substance-K receptor (Homo sapiens, UniProt P21452), gathered from multiple publications, appears below.
State just the number; it will be interpreted in nM.

Input line: Given the entry CO/N=C(\COCc1cc(C(F)(F)F)cc(C(F)(F)F)c1)C(CCN1CCC(CN2CCCC(Cc3ccccc3)C2=O)CC1)c1ccc(Cl)c(Cl)c1 (configuration not stated) , report its measured Ki.
Output line: 91

Input line: Please answer likewise for CC/C(=N\O)C1CCN(CCC(CN(C)C(=O)c2ccccc2)c2ccc(Cl)c(Cl)c2)CC1 (configuration not stated)
Output line: 1.3

Input line: Please answer likewise for CO/N=C(\COCc1cc(C(F)(F)F)cc(C(F)(F)F)c1)C(CCN1CCC(CN2CCCC(CO)C2)CC1)c1ccc(Cl)c(Cl)c1 (configuration not stated)
Output line: 39

Input line: Please answer likewise for O=C1C[C@@H](N2CCOCC2)C(=O)NC[C@@H](Cc2ccccc2)NC(=O)[C@H](Cc2ccccc2)NC(=O)[C@H](Cc2c[nH]c3ccccc23)N1
Output line: 0.158

---

Reported pKi against Substance-K receptor (Homo sapiens, UniProt P21452), gathered from multiple publications, appears below.
The value called pKi is obtained by taking minus log10 of the concentration in mol/L.

Input line: Given the entry Cc1ccc2cc(C(=O)NC3(C(=O)N[C@@H](/C=C/CN4CCN(CC5CCOCC5)CC4)Cc4ccccc4)CCCC3)sc2c1 , report its measured pKi.
Output line: 9.30

Input line: Please answer likewise for O=C(NCCCN1CCOCC1)[C@H](Cc1ccccc1)NC(=O)N1CCC(Cc2ccccc2)CC1
Output line: 5.80

Input line: Please answer likewise for O=C(NC1(C(=O)N[C@@H](Cc2ccccc2)C(=O)NCCCN2CCOCC2)CCCCC1)c1cc2ccccc2s1
Output line: 7.60

---

Biological target: Substance-K receptor (Homo sapiens, UniProt P21452)
Sequence (P21452 whole entry): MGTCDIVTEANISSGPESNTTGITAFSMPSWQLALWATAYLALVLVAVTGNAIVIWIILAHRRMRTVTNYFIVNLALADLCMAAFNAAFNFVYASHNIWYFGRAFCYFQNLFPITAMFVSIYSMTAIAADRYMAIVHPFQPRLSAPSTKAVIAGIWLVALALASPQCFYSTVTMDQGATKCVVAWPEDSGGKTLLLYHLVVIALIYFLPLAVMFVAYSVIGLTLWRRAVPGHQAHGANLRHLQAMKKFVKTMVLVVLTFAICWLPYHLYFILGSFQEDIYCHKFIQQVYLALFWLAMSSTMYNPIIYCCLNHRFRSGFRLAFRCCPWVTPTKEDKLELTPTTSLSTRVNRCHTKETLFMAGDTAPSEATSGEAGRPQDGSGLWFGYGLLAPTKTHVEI
pKi: −log10 of the molar value.
Reported pKi against Substance-K receptor (Homo sapiens, UniProt P21452), gathered from multiple publications, appears below.
The threshold is inclusive: pKi of exactly 8 counts as yes (1); values below receive no (0).

Input line: Has CN(C(=O)N[C@H](Cc1ccccc1)C(=O)NCCCN1CCOCC1)c1cccc(Oc2cccc(F)c2)c1 a recorded pKi greater than or equal to 8?
Output line: no (0)

Input line: Please answer likewise for O=C(Nc1ccc(Oc2ccc(OC(F)(F)F)cc2)cc1)N[C@H](Cc1ccccc1)C(=O)NCCCN1CCOCC1
Output line: no (0)

Input line: Please answer likewise for CC(C)C[C@H](NC(=O)[C@@H](Cc1ccccc1)NC(=O)C1(NC(=O)c2cc3ccccc3s2)CCCCC1)C(N)=O
Output line: no (0)

Input line: Please answer likewise for O=C(NC1(C(=O)N[C@H](Cc2ccccc2)C(=O)NCCCN2CCCC2)Cc2ccccc2C1)c1cc2ccccc2s1
Output line: yes (1)

Input line: Please answer likewise for CN(C(=O)N[C@@H](Cc1ccccc1)C(=O)NCCCN1CCOCC1)c1cccc(Oc2ccccc2)c1
Output line: no (0)

Input line: Please answer likewise for CCOC(=O)C1=C(C)OC2OC(COCc3ccccc3)C(OCc3ccccc3)C(O)C2[S+]1[O-] (stereo not given)
Output line: no (0)

Input line: Please answer likewise for O=C1CC(C(=O)N2CCC(N3CCCCC3)CC2)C(=O)NCC(Cc2ccccc2)NC(=O)C(Cc2ccccc2)NC(=O)[C@H](Cc2c[nH]c3ccccc23)N1 (single isomer, unassigned; 8f)
Output line: yes (1)

Input line: Please answer likewise for CC(C)(NC(=O)c1cc2ccccc2s1)C(=O)N[C@@H](Cc1ccccc1)C(=O)NCCOCCOCCN
Output line: no (0)

Input line: Please answer likewise for CC(C)(C)c1ccc(-c2nc3c(N4CCN(Cc5ccc6nccnc6c5)CC4)cccc3[nH]2)cc1
Output line: no (0)

Input line: Please answer likewise for Cc1ccc2cc(C(=O)NC3(C(=O)N[C@@H](CCC(=O)N4CCC(N(C)C5CCOCC5)CC4)Cc4ccccc4)CCCC3)sc2c1
Output line: yes (1)

Input line: Please answer likewise for CN(CC(CCN1CCC(CCO)CC1)c1ccc(Cl)c(Cl)c1)C(=O)c1ccccc1 (stereo not given)
Output line: no (0)

Input line: Please answer likewise for O=C1CC(C(=O)NC(CO)CO)C(=O)NCC(Cc2ccccc2)NC(=O)C(Cc2ccccc2)NC(=O)[C@H](Cc2c[nH]c3ccccc23)N1 (single isomer, unassigned)
Output line: yes (1)

Input line: Please answer likewise for CC(C)C[C@@H](NC(=O)[C@@H](Cc1ccccc1)NC(=O)C1(NC(=O)c2cc3ccccc3s2)CCCCC1)C(N)=O
Output line: no (0)

Input line: Please answer likewise for Cc1ccc2cc(C(=O)NC3(C(=O)N[C@@H](CCCN4CCC(CN5CCOCC5)CC4)Cc4ccccc4)CCCC3)sc2c1
Output line: yes (1)

Input line: Please answer likewise for CCOC(=O)C1=C(C)OC2OC(COCc3ccccc3)C(OCc3ccccc3)C(OCc3ccccc3)C2[S+]1[O-] (stereo not given)
Output line: no (0)

Input line: Please answer likewise for CNC(=O)C[C@H]1CCCN(C2CCN(CC[C@@H](/C(CN(C)C(=O)c3cc(Cl)cc(Cl)c3)=N/OC)c3ccc(Cl)c(Cl)c3)CC2)C1
Output line: yes (1)

Input line: Please answer likewise for O=C(N[C@H]1CCCCN(Cc2ccccc2)C(=O)[C@H](Cc2ccccc2)NC(=O)[C@H](Cc2c[nH]c3ccccc23)NC1=O)OCc1ccccc1
Output line: yes (1)

Input line: Please answer likewise for O=C(C1=C(c2ccccc2)OC2OC(COCc3ccccc3)C(OCc3ccccc3)C(OCc3ccccc3)C2S1(=O)=O)c1ccccc1 (stereo not given)
Output line: no (0)

Input line: Please answer likewise for Cc1ccc2cc(C(=O)NC3(C(=O)N[C@@H](CCCN4CCN(C=O)CC4)Cc4ccccc4)CCCC3)sc2c1
Output line: yes (1)

Input line: Please answer likewise for O=C(NC1(C(=O)N[C@@H](CCCN2CCN(CC3CCOCC3)CC2)Cc2ccccc2)CCCC1)c1cc2ccccc2o1
Output line: yes (1)

Input line: Please answer likewise for CC[C@@H](NC(=O)c1c(OCCO)c(-c2ccccc2)nc2ccccc12)c1ccccc1
Output line: no (0)

Input line: Please answer likewise for O=C(NC1(C(=O)N[C@H](CCCN2CCN(CC3CCOCC3)CC2)Cc2ccccc2)CCCC1)c1ccc2ccccc2c1
Output line: yes (1)

Input line: Please answer likewise for O=C(c1ccccc1C(=O)N(CCCN1CCOCC1)CCc1c[nH]c2ccccc12)N(CCCN1CCOCC1)CCc1c[nH]c2ccccc12
Output line: no (0)

Input line: Please answer likewise for CO/N=C(\COCc1cc(C(F)(F)F)cc(C(F)(F)F)c1)C(CCN1CCC(CNC(=O)c2ccccc2)CC1)c1ccc(Cl)c(Cl)c1 (stereo not given)
Output line: no (0)

Input line: Please answer likewise for O=C(Nc1ccc(Sc2ccc(F)cc2)cc1)N[C@@H](Cc1ccccc1)C(=O)NCCCN1CCOCC1
Output line: no (0)

Input line: Please answer likewise for CC/C(=N/O)C1CCN(CCC(CN(C)C(=O)c2ccccc2)c2ccc(Cl)c(Cl)c2)CC1 (stereo not given)
Output line: yes (1)

Input line: Please answer likewise for CO/N=C(\COCc1cc(C(F)(F)F)cc(C(F)(F)F)c1)C(CCN1CCC(CN2CCCCC2=S)CC1)c1ccc(Cl)c(Cl)c1 (stereo not given)
Output line: no (0)

---

Reported pKi against Substance-K receptor (Homo sapiens, UniProt P21452), gathered from multiple publications, appears below.
The value called pKi is obtained by taking minus log10 of the concentration in mol/L.

Input line: Given the entry CN(C(=O)c1cc(C(F)(F)F)cc(C(F)(F)F)c1)[C@@H](/C=C/C(=O)N[C@H]1CCCCNC1=O)Cc1ccc(Cl)c(Cl)c1 , report its measured pKi.
Output line: 6.99

Input line: Please answer likewise for Cc1ccc2cc(C(=O)NC3(C(=O)N[C@@H](CCCN4CCN(C(=O)c5cccn5C)CC4)Cc4ccccc4)CCCC3)sc2c1
Output line: 9.40

Input line: Please answer likewise for CN(CC(CCN1CCC(C(C)(C)O)CC1)c1ccc(Cl)c(Cl)c1)C(=O)c1ccccc1 (stereo not drawn)
Output line: 8.11

Input line: Please answer likewise for Cc1ccc2cc(C(=O)NC3(C(=O)N[C@@H](CCC(=O)N4CCN(C5CCOCC5)CC4)Cc4ccccc4)CCCC3)sc2c1
Output line: 10.10

Input line: Please answer likewise for O=C(NC1(C(=O)N[C@@H](Cc2ccccc2)C(=O)NCCCN2CCCC2)CCCCC1)c1cc2ccccc2s1
Output line: 7.70

Input line: Please answer likewise for CC(O)C1CCN(CCC(CN(C)C(=O)c2ccccc2)c2ccc(Cl)c(Cl)c2)CC1 (stereo not drawn)
Output line: 7.47

Input line: Please answer likewise for CN1CCCC1CCCNC(=O)C(Cc1ccccc1)NC(=O)C1(NC(=O)c2cc3ccccc3s2)CCCCC1 (stereo not drawn)
Output line: 7.30
